Biological target: CHO-XBP1 luciferase reporter, IRE1-XBP1 UPR activation
Test: XBP1 luciferase reporter activation – CHO-XBP1 cells, luminescence, counter-screen for apoptotic UPR arm activators, dose response (AID 489040);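 note: reporter read after six hours of compound exposure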
The source made the active and inactive calls.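 Rule for the calls: active = mean half-maximal activating concentration from the dose-response fit at or below a set limit; inactive = the rest.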
Result category, one only: active, inactive

So what was the verdict on `COc1ccc(NC(=O)C(=O)N/N=C\c2ccc(CNC(=O)C(=O)Nc3ccc(C)c(C)c3)o2)c(OC)c1` in this test?
inactive

So what was the verdict on `COc1ccc(N=c2oc3c(OC)cccc3cc2C(=O)NCc2ccco2)c(OC)c1` in this test?
inactive

So what was the verdict on `N=c1c(-c2nc3ccccc3[nH]2)cc(C(=O)c2ccco2)nn1-c1ccccc1` in this test?
inactive

So what was the verdict on `Oc1ccc(/C=N/N2CCN(C3c4ccccc4-c4ccccc43)CC2)cc1O` in this test?
active

So what was the verdict on `COC(=O)C1=C(C)N(c2ccc(C)c(C)c2)/C(=C/c2cccs2)C1=O` in this test?
inactive

So what was the verdict on `O=c1c2c3c(sc2ncn1/N=C/c1ccc([N+](=O)[O-])o1)CCCC3` in this test?
inactive

So what was the verdict on `Cc1cc(C(=O)CCl)c(C)n1CCc1ccc(Cl)cc1` in this test?
inactive

So what was the verdict on Cc1cccc(C)c1NC(=O)C(Cl)C(=O)c1ccccc1 (stereo not given) in this test?
inactive

So what was the verdict on `CCOC(=O)/C(=C\c1ccc(Cl)cc1)c1nc2sc(C)c(C)c2c(=O)[nH]1` in this test?
inactive

So what was the verdict on `Cc1cccc(Nc2nc3c(S(=O)(=O)c4ccccc4)nnn3c3ccccc23)c1C` in this test?
inactive

* * *

Target: CHO-XBP1 luciferase reporter, IRE1-XBP1 UPR activation
Assay: XBP1 luciferase reporter activation – CHO-XBP1 cells, luminescence, counter-screen for apoptotic UPR arm activators, dose response (AID 489040);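 note: reporter read after six hours of compound exposure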
Activity calls are given as the source filed them.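 How the source made its calls: active means mean half-maximal activating concentration from the dose-response fit at or below a set limit; inactive means the rest.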
Result category, one only: YES = active, NO = inactive

So what was the verdict on `Oc1ccc(-c2csc(Nc3cccc4ccccc34)n2)cc1O` in this test?
NO

So what was the verdict on `COc1c(Cl)cc(Cl)cc1/C=C/C(=O)c1ccc(NC(=O)c2cccs2)cc1` in this test?
NO

So what was the verdict on `CCc1ccc2nc(N(CCCN(C)C)C(=O)c3ccc(S(=O)(=O)N(C)C4CCCCC4)cc3)sc2c1` in this test?
NO

So what was the verdict on `Cc1cc(O)c(-c2cc(O)c(C)cc2O)cc1O` in this test?
NO

So what was the verdict on CCOc1ccc2nc(SC3CC(=O)N(c4ccc(C)cc4)C3=O)sc2c1 (configuration not stated) in this test?
NO

So what was the verdict on `CCc1ccc(-n2c(SCC(=O)c3ccc4c(c3)NC(=O)CO4)nc3ccccc3c2=O)cc1` in this test?
YES

So what was the verdict on CCOC(=O)c1c(C)oc2c1c(C(c1cccnc1)N1CCCCC1)c(O)c1ccccc12 (configuration not stated) in this test?
NO

So what was the verdict on `COc1cccc2sc(Nc3nnc(-c4cccs4)o3)nc12` in this test?
NO

So what was the verdict on `COC(=O)c1ccc(COc2ccccc2/C=C(\C#N)C(=O)Nc2c(C)cccc2C)cc1` in this test?
NO

So what was the verdict on `O=C(N/N=C/c1cccc2cccnc12)c1ccccc1O` in this test?
NO

So what was the verdict on `COc1ccc(-c2csc3nc(-c4ccc(C)cc4)oc(=O)c23)cc1OC` in this test?
NO

So what was the verdict on `O=[N+]([O-])c1ccc(Sc2nnnn2-c2ccccc2)nc1` in this test?
NO

So what was the verdict on CC(NC(=O)CN(c1cccc(C(F)(F)F)c1)S(=O)(=O)c1ccc(Cl)c([N+](=O)[O-])c1)c1ccccc1 (configuration not stated) in this test?
NO

So what was the verdict on `Cn1cc(/C=C2\SC(=O)NC2=S)c2ccccc21` in this test?
NO

So what was the verdict on `S=C(Nc1ccccn1)c1ccccn1` in this test?
NO

So what was the verdict on `COc1ccccc1-c1nnc(Nc2nc3c(OC)cccc3s2)o1` in this test?
NO

So what was the verdict on `O=C1/C(=C/c2ccccc2[N+](=O)[O-])COc2ccccc21` in this test?
NO

So what was the verdict on COc1ccc(C(=O)C(CN2CCCC2)c2ccccc2)cc1 (configuration not stated) in this test?
NO

So what was the verdict on `O=C(Nc1ccc(N2CCOCC2)cc1)c1ccc([N+](=O)[O-])o1` in this test?
NO

So what was the verdict on `Cc1cccnc1Nc1nc(-c2ccc(O)c(O)c2)cs1` in this test?
NO

So what was the verdict on `Oc1ccc(CN2CCC(Cc3ccccc3)CC2)c2cccnc12` in this test?
NO

So what was the verdict on `CCOC(=O)C(=Cc1ccc(-n2ccnc2)cc1)C(=O)OCC` in this test?
NO

* * *

Molecular target: CHO-XBP1 luciferase reporter, IRE1-XBP1 UPR activation
Experiment: XBP1 luciferase reporter activation – CHO-XBP1 cells, luminescence, counter-screen for apoptotic UPR arm activators, dose response (AID 489040);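 note: reporter read after six hours of compound exposure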
The source made the active and inactive calls.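 The calls were made as follows: active = mean half-maximal activating concentration from the dose-response fit at or below a set limit; inactive = the rest.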
Result category, one only: class 1 for active, class 0 for inactive

So what was the verdict on `COc1ccc(-c2cc(-c3ccccc3)c(C#N)c(S(C)(=O)=O)n2)cc1` in this test?
class 1

So what was the verdict on `C=C(C(=O)c1ccccc1)C(C(=C)C(=O)c1ccccc1)c1ccc(OC)cc1` in this test?
class 0

So what was the verdict on `COc1ccc(C(=O)Cn2c(C(=O)/C=C/c3ccccc3)nc3ccccc32)cc1` in this test?
class 0

So what was the verdict on `CCCN(CCC)C(=O)c1cc([N+](=O)[O-])cc2c1-c1ccc([N+](=O)[O-])cc1C2=C(C#N)C#N` in this test?
class 0

So what was the verdict on `O=C(/C(=N/N=C/c1ccc(O)c(O)c1)c1ccccc1)c1ccccc1` in this test?
class 0

So what was the verdict on `Cc1ccc(NC(=O)Cn2ncc(Cl)c(Cl)c2=O)cc1S(=O)(=O)N1CCCCC1` in this test?
class 0

So what was the verdict on `C=CCN=c1scc(C)n1/N=C/c1ccc(O)c(O)c1` in this test?
class 1

So what was the verdict on `O=[N+]([O-])c1ccc(C=Nc2ccc(Cl)cc2Cl)s1` in this test?
class 0

So what was the verdict on `Cc1ccc(Sc2c([N+](=O)[O-])c(=O)n(C)c3ccccc23)cc1` in this test?
class 0

So what was the verdict on `COc1ccc(NC(=O)c2nc(S(=O)(=O)Cc3cccc(C)c3)ncc2Cl)c(OC)c1` in this test?
class 0

* * *

Biological target: CHO-XBP1 luciferase reporter, IRE1-XBP1 UPR activation
Experiment: XBP1 luciferase reporter activation – CHO-XBP1 cells, luminescence, counter-screen for apoptotic UPR arm activators, dose response (AID 489040);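 note: reporter read after six hours of compound exposure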
Activity calls are given as the source filed them.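 Rule for the calls: active = mean half-maximal activating concentration from the dose-response fit at or below a set limit; inactive = the rest.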
Result category, one only: active, inactive

So what was the verdict on CCOC(=O)N1CCN(S(=O)(=O)c2ccc(C(=O)Nc3nc4c(s3)CC(C)CC4)cc2)CC1 (stereo not given) in this test?
inactive

So what was the verdict on `Oc1ccc(/C=N/Nc2nc(N3CCCC3)nc(N3CCCC3)n2)cc1O` in this test?
active

So what was the verdict on N#CC12COC3(CCCCC3C1(C#N)C#N)OC2=N (stereo not given) in this test?
inactive

So what was the verdict on `O=C(N/N=C/c1ccc(O)c(O)c1)NC12CC3CC(CC(C3)C1)C2` in this test?
active

So what was the verdict on `Cc1nc([N+](=O)[O-])c(Br)n1CC(=O)c1ccc2ccccc2c1` in this test?
inactive

So what was the verdict on `C=CCn1c(O)c(N=NC(=S)Nc2ccccc2F)c2cc(S(=O)(=O)N3CCOCC3)ccc21` in this test?
inactive

So what was the verdict on `OCCNc1nc(Nc2ccc(Br)cc2)nc2ccccc12` in this test?
active

So what was the verdict on `O=C(/C(=C/c1cccc(Cl)c1)c1nc2ccccc2[nH]1)c1ccccc1` in this test?
inactive

So what was the verdict on `FC(F)(F)c1nnc2c(Sc3ccccc3)nc3ccc(Cl)cc3n12` in this test?
active

So what was the verdict on CCCCOc1ccc(N2C(=O)CC(N(O)c3ccccc3)C2=O)cc1 (stereo not given) in this test?
inactive

* * *

Target: CHO-XBP1 luciferase reporter, IRE1-XBP1 UPR activation
Assay: XBP1 luciferase reporter activation – CHO-XBP1 cells, luminescence, counter-screen for apoptotic UPR arm activators, dose response (AID 489040);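 note: reporter read after six hours of compound exposure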
The source made the active and inactive calls.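 How the source made its calls: active means mean half-maximal activating concentration from the dose-response fit at or below a set limit; inactive means the rest.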
Result category, one only: yes (1) = active, no (0) = inactive

So what was the verdict on `C/C(=N/NC(=O)c1ccc(C(C)(C)C)cc1)c1ccccn1` in this test?
no (0)

So what was the verdict on `CC1=CC(C)(C)Nc2ccc(OC(=O)CN3C(=O)CCC3=O)cc21` in this test?
no (0)

So what was the verdict on `N#Cc1cc([N+](=O)[O-])c(-n2nnc3ccccc32)c([N+](=O)[O-])c1` in this test?
no (0)

So what was the verdict on `C/C(=N\NC(=O)c1cc(-c2cccs2)nc2ccccc12)c1ccccn1` in this test?
no (0)

So what was the verdict on `O=c1c2ccccc2nc(/C=C/c2ccc([N+](=O)[O-])o2)n1-c1ccc(O)cc1` in this test?
no (0)

So what was the verdict on `O=C(NCc1cccnc1)/C(=C\c1ccc(-c2ccc(Br)cc2)o1)S(=O)(=O)c1ccccc1` in this test?
no (0)

So what was the verdict on `COc1ccccc1N=c1oc2c(OC)cccc2cc1C(=O)NCc1ccco1` in this test?
no (0)

So what was the verdict on `COc1ccc(CC2=CC(=O)c3ccccc3C2=O)cc1` in this test?
no (0)

So what was the verdict on `O=C(Nc1cccc(-c2nc3cccnc3s2)c1)C1c2ccccc2Oc2ccccc21` in this test?
yes (1)

So what was the verdict on COc1cc(/C=C2\CC(C(C)(C)C)C/C(=C\c3cc(OC)c(OC)c(OC)c3)C2=O)cc(OC)c1OC (stereo not given) in this test?
no (0)

Values were extracted from PubChem BioAssay AID489040.
